This collection of values is drawn from patent US9328138B2.

test target: HCV genotype 1b (BK) NS3 modified enzyme with a R155K mutation (Hepatitis C virus genotype 1b, UniProt P26663, R1181K)
Construct: HCV genotype 1b (BK) NS3 modified enzyme
measurement protocol: HCV NS3 protease time-resolved fluorescence (TRF) assay, genotype 1b R155K
Assay type: biochemical
protocol conditions: Ki 1b R155K, genotype 1b (BK) NS3 R155K; single value
property label: Ki (nM)

compound="C=C[C@@H]1C[C@]1(NC(=O)[C@@H]1C[C@@H]2CN1C(=O)[C@H](C(C)(C)C)NC(=O)O[C@@H]1C[C@H]1CCCCCc1c(nc3ccccc3c1OCCCNC1CCCc3ccccc31)O2)C(=O)NS(=O)(=O)C1(C)CC1 (stereo partly shown)" readout_unit=nM readout_number=0.15
compound=C=C[C@@H]1C[C@]1(NC(=O)[C@@H]1C[C@@H]2CN1C(=O)[C@H](C(C)(C)C)NC(=O)O[C@@H]1C[C@H]1CCCCCc1c(nc3cc(C(C)C)ccc3c1OCCCN1CCS(=O)(=O)CC1)O2)C(=O)NS(=O)(=O)C1(C)CC1 readout_unit=nM readout_number=0.18
compound=C=C[C@@H]1C[C@]1(NC(=O)[C@@H]1C[C@@H]2CN1C(=O)[C@H](C(C)(C)C)NC(=O)O[C@@H]1C[C@H]1CCCCCc1c(nc3ccccc3c1OCCCN(C)Cc1ncc[nH]1)O2)C(=O)NS(=O)(=O)C1(C)CC1 readout_unit=nM readout_number=0.074
compound=C=C[C@@H]1C[C@]1(NC(=O)[C@@H]1C[C@@H]2CN1C(=O)[C@H](C1CCCC1)NC(=O)O[C@@H]1CCC[C@H]1CC/C=C/Cc1c(nc3ccccc3c1OCCCOC(=O)CN(C)C)O2)C(=O)NS(=O)(=O)C1CC1 readout_unit=nM readout_number=0.1
